TEST METHOD NOTES: C. albicans growth with fluconazole, confirmation, fluorescence, retest (AID 2467)
Assay type: functional, cell-based
Activity calls are given as the source filed them.
Let's look at some compounds and their measured EC50.

State, in one line, measured EC50 of N=C(Cc1ccc(Cl)cc1Cl)NOC(=O)c1ccccc1 > 38 µM (not active)

Identify measured EC50 corresponding to CCOC(=O)N1C(=O)C2(CCCCC2)N(c2ccccc2Cl)C1=S < 0.03 µM (active)

Give the measured EC50 for O=[N+]([O-])c1c(C(Cl)Cl)nn(-c2ccc(Cl)cc2)c1N1CCCCC1 0.436 µM (active)

Give EC50 for Nc1ccc(SCCN2C(=O)c3ccccc3C2=O)cc1 > 38 µM (not active)

---

EXPERIMENTAL TARGET: Sentrin-specific protease 6 (Homo sapiens, UniProt Q9GZR1);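 also: Luminescence-based dose-response confirmatory assay of SENP6 inhibition, following up an ultra-high-throughput screen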
Sequence (Q9GZR1 whole entry): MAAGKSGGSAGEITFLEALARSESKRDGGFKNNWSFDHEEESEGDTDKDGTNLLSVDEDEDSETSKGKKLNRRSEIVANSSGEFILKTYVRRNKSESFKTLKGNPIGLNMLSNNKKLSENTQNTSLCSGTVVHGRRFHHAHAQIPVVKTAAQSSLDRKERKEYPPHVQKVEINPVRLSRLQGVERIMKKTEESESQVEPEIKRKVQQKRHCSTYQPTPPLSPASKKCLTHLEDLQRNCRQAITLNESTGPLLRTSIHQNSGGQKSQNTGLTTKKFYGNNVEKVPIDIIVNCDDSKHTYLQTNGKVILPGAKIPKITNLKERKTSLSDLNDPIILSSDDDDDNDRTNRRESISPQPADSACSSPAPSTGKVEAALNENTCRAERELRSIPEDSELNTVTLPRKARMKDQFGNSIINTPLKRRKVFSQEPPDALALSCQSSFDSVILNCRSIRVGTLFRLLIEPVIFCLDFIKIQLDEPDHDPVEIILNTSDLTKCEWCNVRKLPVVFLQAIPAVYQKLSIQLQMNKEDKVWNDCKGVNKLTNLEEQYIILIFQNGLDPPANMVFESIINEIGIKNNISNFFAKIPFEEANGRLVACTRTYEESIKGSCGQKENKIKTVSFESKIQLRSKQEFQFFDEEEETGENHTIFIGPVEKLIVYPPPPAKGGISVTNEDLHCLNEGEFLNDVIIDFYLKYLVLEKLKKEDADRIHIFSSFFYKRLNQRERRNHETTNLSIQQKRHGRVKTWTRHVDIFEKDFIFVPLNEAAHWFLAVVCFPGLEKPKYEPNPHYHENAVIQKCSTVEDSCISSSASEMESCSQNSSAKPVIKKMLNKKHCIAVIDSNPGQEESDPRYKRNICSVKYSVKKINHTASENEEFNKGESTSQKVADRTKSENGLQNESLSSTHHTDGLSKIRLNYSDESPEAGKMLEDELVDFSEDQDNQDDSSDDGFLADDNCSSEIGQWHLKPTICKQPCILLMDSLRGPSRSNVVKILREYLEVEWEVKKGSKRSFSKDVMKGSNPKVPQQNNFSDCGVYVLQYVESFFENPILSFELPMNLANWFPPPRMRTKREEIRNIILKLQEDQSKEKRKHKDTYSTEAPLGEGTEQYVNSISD
Type: functional
The source made the active and inactive calls.
Parameter IC50: see the listing below.

Study these solved cases before continuing.
Answer briefly: IC50 recorded on Sentrin-specific protease 6 (Homo sapiens, UniProt Q9GZR1) for Nc1c(N2CCCC2)cc(Cl)c2nonc12 3.02 µM (active)

Fill in: IC50 on Sentrin-specific protease 6 (Homo sapiens, UniProt Q9GZR1), entry O=C(NNc1cc(N2CCOCC2)nc(N2CCOCC2)n1)c1ccc([N+](=O)[O-])cc1 6.72 µM (active)

***
Report value only: IC50, Sentrin-specific protease 6 (Homo sapiens, UniProt Q9GZR1), O=C(c1ccc(F)cc1)n1c(=S)nc2ccccn21 60.4 µM (active)

Provide IC50, recorded with Sentrin-specific protease 6 (Homo sapiens, UniProt Q9GZR1), of O=C1OC(Nc2cc(Br)cc3cccnc23)c2ccccc21 (configuration not stated) < 1.55 µM (active)

Under Sentrin-specific protease 6 (Homo sapiens, UniProt Q9GZR1), report IC50 for CCCOc1ccc(-c2nnc(-c3ccco3)o2)cc1 22.4 µM (active)

Write IC50 of Oc1ccc(/N=C/c2ccc(OCc3ccccc3)cc2)cc1 ; system used: Sentrin-specific protease 6 (Homo sapiens, UniProt Q9GZR1) 16.4 µM (active)

// output IC50; input CCOC(=O)c1sc(NC(=O)c2ccc3nc[nH]c3c2)nc1C ; system Sentrin-specific protease 6 (Homo sapiens, UniProt Q9GZR1) 5.17 µM (active)
